In this section, each of the binders is paired with its reported koff.
TARGET ENTITY: T1, human TfR extracellular domain with N-terminal His tag (human, UniProt P02786 89-760)
T1 construct: Biotinylated in some assays; also called huTfR; HuTfR
T1 sequence (P02786 89-760 G142S): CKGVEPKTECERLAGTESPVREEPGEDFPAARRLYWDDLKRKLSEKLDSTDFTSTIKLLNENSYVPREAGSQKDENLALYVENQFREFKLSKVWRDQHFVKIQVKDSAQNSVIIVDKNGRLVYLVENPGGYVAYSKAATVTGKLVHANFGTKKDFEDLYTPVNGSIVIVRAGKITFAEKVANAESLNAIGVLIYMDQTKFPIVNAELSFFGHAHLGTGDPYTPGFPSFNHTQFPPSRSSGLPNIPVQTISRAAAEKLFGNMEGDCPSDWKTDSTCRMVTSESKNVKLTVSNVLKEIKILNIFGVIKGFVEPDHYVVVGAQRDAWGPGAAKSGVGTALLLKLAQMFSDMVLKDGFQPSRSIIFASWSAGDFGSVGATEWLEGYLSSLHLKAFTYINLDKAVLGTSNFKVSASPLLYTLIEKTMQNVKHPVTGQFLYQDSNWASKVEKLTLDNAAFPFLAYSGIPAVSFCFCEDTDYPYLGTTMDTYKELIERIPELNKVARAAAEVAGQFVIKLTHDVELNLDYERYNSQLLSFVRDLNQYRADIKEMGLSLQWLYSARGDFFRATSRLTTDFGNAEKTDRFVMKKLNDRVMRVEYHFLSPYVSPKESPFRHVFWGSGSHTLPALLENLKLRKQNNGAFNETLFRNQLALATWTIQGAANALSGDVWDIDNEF
ASSAY: SPR, TfR captured by anti-His, Fab injected;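 further: single cycle kinetics with a Fab dilution series, fitted by a one-to-one Langmuir model or a steady state model, KD taken as koff over kon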
The figure you give is taken to be in s⁻¹; do not add the unit.

BINDER: Hu16F6.v4.Fab (Fab, V domains shown, Fab) VH: EVQLVESGPGLVKPSETLSLTCTVSGNSITSEYAWNWIRQPPGKGLEWIGYISYSGTTSYNPSLKSRVTISRDTSKNQLSLKLSSVTAADTAVYYCARYGYGNPATRYFDVWGQGTLVTVSS VL: DIQMTQSPSSLSASVGDRVTITCRASKSISKYLAWYQQKPGKTNKLLLYSGSTLQSGVPSRFSGSGSGTDYTLTISSLQPEDFATYYCQQHNEYPWTFGQGTKVEIK
METRIC: koff
UNIT NAME: s⁻¹
VALUE OBSERVED: 0.000169

I am curious: what koff value has been reported for hu7A4.v15.Fab (Fab, V domains shown, Fab) VH: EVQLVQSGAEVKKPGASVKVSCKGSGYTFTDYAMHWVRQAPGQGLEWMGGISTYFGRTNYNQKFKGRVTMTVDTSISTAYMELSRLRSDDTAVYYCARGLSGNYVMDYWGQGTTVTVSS VL: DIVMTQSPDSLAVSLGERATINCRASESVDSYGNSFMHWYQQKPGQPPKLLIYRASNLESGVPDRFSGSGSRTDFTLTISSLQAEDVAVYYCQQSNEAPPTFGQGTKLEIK ?
0.000317
